Below, each of the variants is paired with its reported aptazyme ON/OFF ratio value.
B1: Pistol ribozyme (parent)
chain: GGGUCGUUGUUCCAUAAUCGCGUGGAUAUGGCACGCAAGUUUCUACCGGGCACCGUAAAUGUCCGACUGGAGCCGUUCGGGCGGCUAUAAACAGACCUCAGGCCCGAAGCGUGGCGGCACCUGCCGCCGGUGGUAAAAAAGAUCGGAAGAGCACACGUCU

# Variants of: B1
# PROTOCOL_TEXT: aptazyme ON/OFF ratio, guanine; higher = stronger switching; co-transcriptional cleavage with and without guanine
Number only, no unit.

The cases that follow already have their aptazyme ON/OFF ratio on record.
# MUTATION_SPEC, ENDPOINT_RESULT
records = [
    ("U7C U8A U10C U11A C12G C13U", 1.09),
    ("U7G U10C U11A C12G C13U", 1.06),
    ("U7A G9A U11A C13A", 1.17),
    ("U7C U8G G9C U10A U11A C12A", 1.22),
    ("U7A U8A G9U U11A C13U", 1.26),
    ("U7A G9C U10C U11G C12G C13G", 1.17),
]

Lab book: aptazyme ON/OFF ratio of U7C G9C U10G U11A C12A C13G noted as 1.09

The recorded aptazyme ON/OFF ratio for entry U7A U8A G9U U10G C13A equals 1.24

Source listed as the RNAGym collection of RNA variant scans (doi:10.1021/acssynbio.7b00057).
